measurement_target: T1, biotinylated goat anti-human kappa light chain
T1 construct: positive control of the ELISA
test_method_notes: ELISA, positive control; further: test concentration or dose not given here
metric: optical density
For clarity, give the value followed by its unit.

Q: Which value of optical density has been reported for 374_B08 (antibody, V domains shown, Group III) VH: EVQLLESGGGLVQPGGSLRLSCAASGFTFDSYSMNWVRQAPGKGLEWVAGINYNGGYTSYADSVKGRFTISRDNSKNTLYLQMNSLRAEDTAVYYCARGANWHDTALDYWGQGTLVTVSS VL: DIQMTQSPSSLSASVGDRVTITCRASQSIVSYVNWYQQKPGKAPKLLIYAATSRHSGVPSRFSGSGSGTDFTLTISSLQPEDFATYYCQQSYELPLTFGGGTKVEIK in the records?
Ans: 3.12 OD

Q: Next entry: 371_G11 (antibody, V domains shown, Group III) VH: EVQLLESGGGLVQPGGSLRLSCAASGFTFSSYGMNWVRQAPGKGLEWVSNINYNSGYTSYADSVKGRFTISRDNSKNTLYLQMNSLRAEDTAVYYCARGANWHDTALDYWGQGTLVTVSS VL: DIQMTQSPSSLSASVGDRVTITCRASQSILSYVNWYQQKPGKAPKLLIYAATSLASGVPSRFSGSGSGTDFTLTISSLQPEDFATYYCQQSYDSPLTFGGGTKVEIK
Ans: 3.67 OD

Q: Follow-up item: 374_G03 (antibody, V domains shown, Group III) VH: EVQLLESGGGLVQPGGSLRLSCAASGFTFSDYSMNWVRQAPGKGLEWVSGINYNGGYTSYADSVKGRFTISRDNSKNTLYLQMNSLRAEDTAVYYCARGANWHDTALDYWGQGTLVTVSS VL: DIQMTQSPSSLSASVGDRVTITCRASQSISSYLNWYQQKPGKAPKLVIYAATSRASGVPSRFSGSGSGTDFTLTISSLQPEDFATYYCQQSDDTPLTFGGGTKVEIK
Ans: 3.22 OD
